EXPERIMENTAL_DETAILS: Metabolic stability in mouse liver microsomes assessed as parent compound remaining at 1 uM preincubated for 5 mins followed by NADPH addition by LC-MS/MS analysis
Type: ADME, Microsome
MEASUREMENT_CONDITIONS: read-out: Stability
MEASURED_QUANTITY: remaining at 1 µM (%)

1 = Cc1cccc(-c2nn3c(c2-c2ccc4ncnn4c2/C=C/C(=O)NO)CCC3)n1
2 = Cc1cccc(-c2nn3c(c2-c2ccc4ncnn4c2/C=C/C(C)(C)O)CCC3)n1
3 = Cc1cccc(-c2nn(Cc3cccc(C(F)F)c3)cc2-c2ccc3ncnn3c2/C=C/C(N)=O)n1
q: From the records above, write out the order of decreasing remaining at 1 µM. # answer = labels listed in requested order
a: 1, 2, 3

###

Target sequence: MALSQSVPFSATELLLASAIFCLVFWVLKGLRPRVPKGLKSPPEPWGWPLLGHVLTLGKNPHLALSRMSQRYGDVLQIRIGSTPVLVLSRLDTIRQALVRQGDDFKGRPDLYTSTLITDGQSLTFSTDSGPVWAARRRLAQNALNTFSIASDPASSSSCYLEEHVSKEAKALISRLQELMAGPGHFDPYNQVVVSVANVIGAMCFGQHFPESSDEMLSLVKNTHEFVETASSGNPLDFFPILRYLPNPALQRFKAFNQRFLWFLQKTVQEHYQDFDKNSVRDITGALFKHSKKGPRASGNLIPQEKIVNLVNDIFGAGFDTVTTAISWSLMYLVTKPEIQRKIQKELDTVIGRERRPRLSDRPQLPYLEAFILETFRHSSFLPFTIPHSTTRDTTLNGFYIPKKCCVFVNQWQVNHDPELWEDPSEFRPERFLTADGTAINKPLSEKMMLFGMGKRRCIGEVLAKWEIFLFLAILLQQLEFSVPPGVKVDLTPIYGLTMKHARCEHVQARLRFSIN
MEASURED_QUANTITY: IC50

q: GET /values?readout=IC50&item= Cc1cccc(-c2nn3c(c2-c2ccc4ncnn4c2/C=C/C(N)=O)CCC3)n1
a: > 100 µM

###

MEASURED_ON: TGF-beta receptor type-1 (Homo sapiens, UniProt P36897)
Sequence (P36897 whole entry): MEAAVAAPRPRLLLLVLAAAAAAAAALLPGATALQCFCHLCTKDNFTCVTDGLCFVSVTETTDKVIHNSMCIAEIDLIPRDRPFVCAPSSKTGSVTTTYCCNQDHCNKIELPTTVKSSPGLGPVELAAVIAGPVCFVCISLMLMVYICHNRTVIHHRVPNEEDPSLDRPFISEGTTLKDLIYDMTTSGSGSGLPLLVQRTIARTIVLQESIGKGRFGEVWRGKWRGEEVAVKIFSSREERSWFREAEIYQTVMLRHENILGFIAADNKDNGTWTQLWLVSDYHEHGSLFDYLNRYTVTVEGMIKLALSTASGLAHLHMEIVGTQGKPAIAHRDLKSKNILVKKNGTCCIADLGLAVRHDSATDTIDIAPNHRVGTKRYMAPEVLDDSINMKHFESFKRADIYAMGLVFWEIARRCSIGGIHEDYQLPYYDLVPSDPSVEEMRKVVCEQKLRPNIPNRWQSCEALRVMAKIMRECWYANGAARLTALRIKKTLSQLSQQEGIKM
EXPERIMENTAL_DETAILS: Inhibition of TGFbetaR1 (unknown origin) in presence of ATP
pIC50: −log10 of the molar value.
MEASURED_QUANTITY: pIC50

> print(dat)
                                smiles.code  measured.quantity  recorded.value
1  Cc1cccc(-c2nn3c(c2-c2ccc4ncnn4c2/C=C/C(C)(C)O)CCC3)n1              pIC50            7.08

1 = Cc1cccc(-c2nn3c(c2-c2ccnc(Nc4ccc(S(N)(=O)=O)cc4)c2)CCC3)n1
2 = Cc1cccc(-c2nn3c(c2-c2ccc4ncnn4c2CCC(N)=O)CCC3)n1
3 = CCNC(=O)/C=C/c1c(-c2c(-c3cccc(C)n3)nn3c2CCC3)ccc2ncnn12
q: Put the molecules in ascending order of pIC50. # answer = labels listed in requested order
a: 2, 3, 1
(2: 6.03, 3: 6.51, 1: 7.08)

###

EXPERIMENTAL_DETAILS: Apparent permeability across apical to basolateral side in dog MDCK-MDR1 cells at 2 uM measured over 150 mins by LC-MS/MS analysis
Assay type: ADME, cell-based, Canis lupus familiaris
MEASURED_QUANTITY: Papp A→B at 2.5 h, 2 µM (×10⁻⁶ cm/s)

Worked set:
> print(dat)
                                smiles.code  recorded.value
1  Cc1cccc(-c2nn3c(c2-c2ccc4ncnn4c2/C=C/C(C)(C)O)CCC3)n1            8.48
2  Cc1cccc(-c2nn3c(c2-c2ccc4ncnn4c2/C=C/C(N)=O)CCC3)n1            0.39
3  Cc1cccc(-c2nn3c(c2-c2ccc4ncnn4c2/C=C/C(=O)O)CCC3)n1            0.43

P = Cc1cccc(-c2nn3c(c2-c2ccc4ncnn4c2/C=C/C(=O)NO)CCC3)n1
Q = CCOC(=O)/C=C/c1c(-c2c(-c3cccc(C)n3)nn3c2CCC3)ccc2ncnn12
q: Returns: the label, P or Q , whose recorded Papp A→B at 2.5 h, 2 µM is the lower number. I would appreciate it if you answered with the label of your choice.
a: P
(P: 0.15 ×10⁻⁶ cm/s, Q: 19.4 ×10⁻⁶ cm/s)

###

Reported values of pIC50 for individual entries
MEASURED_ON: Mitogen-activated protein kinase 14 (Homo sapiens, UniProt Q16539)
Sequence (Q16539 whole entry): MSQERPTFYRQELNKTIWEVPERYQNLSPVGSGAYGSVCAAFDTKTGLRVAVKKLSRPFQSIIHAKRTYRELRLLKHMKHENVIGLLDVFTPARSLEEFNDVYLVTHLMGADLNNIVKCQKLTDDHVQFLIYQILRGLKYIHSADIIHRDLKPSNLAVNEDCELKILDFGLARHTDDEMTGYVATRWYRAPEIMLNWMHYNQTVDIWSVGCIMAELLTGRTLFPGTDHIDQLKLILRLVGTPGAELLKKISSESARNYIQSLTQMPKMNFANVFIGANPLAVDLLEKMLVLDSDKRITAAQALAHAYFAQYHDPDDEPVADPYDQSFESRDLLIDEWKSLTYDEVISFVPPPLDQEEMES
EXPERIMENTAL_DETAILS: Inhibition of p38alpha (unknown origin) measured after 40 mins in presence of [gamma-33P]ATP by microbeta liquid scintillation counting analysis
Just the number, please; pIC50 means minus log10 of the concentration in mol/L.

Worked set:
> print(dat)
                                smiles.code  measured.quantity  recorded.value
1  Cc1cccc(-c2nn3c(c2-c2ccnc(Nc4ccc(S(N)(=O)=O)cc4)c2)CCC3)n1              pIC50            7.82
2  Cc1cccc(-c2nn3c(c2-c2ccc4ncnn4c2/C=C/C(=O)NCCO)CCC3)n1              pIC50            5.16
3  CCNC(=O)/C=C/c1c(-c2c(-c3cccc(C)n3)nn3c2CCC3)ccc2ncnn12              pIC50            5.32
4  Cc1cccc(-c2nn3c(c2-c2ccc4ncsc4c2/C=C/C(N)=O)CCC3)n1              pIC50            6.32
5  Cc1cccc(-c2nn3c(c2-c2ccnc4ccc(C(N)=O)cc24)CCC3)n1              pIC50            6.11

q: GET /values?readout=pIC50&item= Cc1cccc(-c2nn(Cc3cccc(C(F)F)c3)cc2-c2ccc3ncnn3c2/C=C/C(N)=O)n1
a: 5.69

q: Again, but for Cc1cccc(-c2nn3c(c2-c2ccc4ncnn4c2/C=C/C(N)=O)CCCC3)n1
a: 5.80

q: Again, but for Cc1cccc(-c2nn3c(c2-c2ccnc(Nc4ccc(C(N)=O)cc4)c2)CCC3)n1
a: 7.59

q: Again, but for CCOC(=O)/C=C/c1c(-c2c(-c3cccc(C)n3)nn3c2CCC3)ccc2ncnn12
a: 5.23

q: Again, but for Cc1cccc(-c2nn3c(c2-c2ccc4ncnn4c2/C=C/C(=O)NC2CC2)CCC3)n1
a: 5.28

q: Again, but for CCc1cccc(-c2nn3c(c2-c2ccc4ncnn4c2/C=C/C(N)=O)CCC3)n1
a: 5.27

q: Again, but for Cc1cccc(-c2nn3c(c2-c2ccc4ncnn4c2/C=C/C(N)=O)CCC3)n1
a: 5.58

###

Sequence of the target: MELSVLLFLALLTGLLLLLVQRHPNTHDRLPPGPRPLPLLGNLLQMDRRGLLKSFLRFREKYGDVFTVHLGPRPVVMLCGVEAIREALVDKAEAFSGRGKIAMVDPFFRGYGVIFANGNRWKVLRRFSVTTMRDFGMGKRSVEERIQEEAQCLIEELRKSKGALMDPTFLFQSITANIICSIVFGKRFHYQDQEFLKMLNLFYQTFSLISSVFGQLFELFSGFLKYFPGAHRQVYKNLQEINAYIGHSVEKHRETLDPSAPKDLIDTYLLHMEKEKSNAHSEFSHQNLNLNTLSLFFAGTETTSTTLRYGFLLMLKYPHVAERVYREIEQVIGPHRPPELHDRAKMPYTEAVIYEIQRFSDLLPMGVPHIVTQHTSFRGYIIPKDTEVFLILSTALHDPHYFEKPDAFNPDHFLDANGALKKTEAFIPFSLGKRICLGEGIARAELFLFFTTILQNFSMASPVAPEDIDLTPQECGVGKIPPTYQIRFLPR
pIC50: −log10 of the molar value.
MEASURED_QUANTITY: pIC50

q: GET /values?readout=pIC50&item= Cc1cccc(-c2nn3c(c2-c2ccc4ncnn4c2/C=C/C(N)=O)CCC3)n1
a: < 4.00
